targetUnderTest: Solute carrier organic anion transporter family member 1B1 (Homo sapiens, UniProt Q9Y6L6)
Sequence (Q9Y6L6 whole entry): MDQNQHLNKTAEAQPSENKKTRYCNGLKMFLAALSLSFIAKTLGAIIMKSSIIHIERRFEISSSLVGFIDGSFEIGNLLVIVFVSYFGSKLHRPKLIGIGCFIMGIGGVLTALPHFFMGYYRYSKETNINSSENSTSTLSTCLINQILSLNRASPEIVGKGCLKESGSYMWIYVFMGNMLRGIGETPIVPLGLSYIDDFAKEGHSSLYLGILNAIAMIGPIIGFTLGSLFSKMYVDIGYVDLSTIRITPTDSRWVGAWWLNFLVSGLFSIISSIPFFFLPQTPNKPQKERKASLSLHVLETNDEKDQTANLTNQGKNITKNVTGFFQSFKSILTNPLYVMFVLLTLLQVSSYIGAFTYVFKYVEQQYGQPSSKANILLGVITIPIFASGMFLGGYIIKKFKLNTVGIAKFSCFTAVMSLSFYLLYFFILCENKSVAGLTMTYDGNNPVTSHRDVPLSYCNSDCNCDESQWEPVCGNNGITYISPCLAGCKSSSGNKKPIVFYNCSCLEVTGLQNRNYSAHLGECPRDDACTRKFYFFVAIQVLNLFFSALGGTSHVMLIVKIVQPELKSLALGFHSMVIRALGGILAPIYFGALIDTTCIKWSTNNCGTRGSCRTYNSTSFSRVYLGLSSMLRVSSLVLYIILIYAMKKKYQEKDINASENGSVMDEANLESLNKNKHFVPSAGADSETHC
measurementContext: chinese hamster, cho, 10 µM
Residues, ends and D or L forms follow the SMILES beside them.
attributeMeasured: residual activity (%)

compound="CCC(=O)O[C@H]1CC[C@H]2[C@@H]3CCC4=CC(=O)CC[C@]4(C)[C@H]3CC[C@]12C [TESTOSTERONE PROPIONATE]" numericvalue=121
compound=COc1cc(/C=C/C(=O)O)cc(OC)c1OC numericvalue=80.23
compound="C[C@@H]1CC[C@@]23CCC4(C)[C@@](C=CC5[C@@]6(C)CCC(=O)C(C)(C)C6CC[C@]54C)(OC2=O)C3[C@H]1C (some centres not stated) [3-OXOURSAN (28-13)OLIDE]" numericvalue=105.6
compound=COC(=O)CCCOc1ccc(Cl)cc1Cl numericvalue=118.1
compound=CC[C@H](c1ccc(O)cc1)[C@@H](CC)c1ccc(O)cc1 numericvalue=46.62
compound="CC(C)[N+](C)(CCC(C(N)=O)(c1ccccc1)c1ccccc1)C(C)C.[I-] [ISOPROPAMIDE IODIDE]" numericvalue=83.43
compound="COc1cc(O)c2c(=O)cc(-c3ccc(OC)c(-c4c(O)cc(O)c5c(=O)cc(-c6ccc([O-])cc6)oc45)c3)oc2c1.[K+] [GINKGETIN, K salt]" numericvalue=46.45
compound="CC(=O)CC1CCCCN1.Cl (configuration not stated) [PELLETIERINE HYDROCHLORIDE]" numericvalue=75.96
compound=Cc1cc(O)c2c(c1O)C(=O)c1c(O)cc(C)c(O)c1C2=O numericvalue=102.7
compound="COc1cc2c(cc1OC)[C@@H]1C(=O)c3ccc4c(c3O[C@@H]1CO2)CC(C(C)C)O4 (some centres not stated) [DIHYDROROTENONE]" numericvalue=53.61
compound="CCCN1C[C@H](CSC)C[C@@H]2c3cccc4[nH]cc(c34)C[C@H]21.CS(=O)(=O)O [PERGOLIDE MESYLATE]" numericvalue=90.15
compound=CO/N=C(\C(=O)N[C@@H]1C(=O)N2C(C(=O)OCOC(=O)C(C)(C)C)=C(/C=C\c3scnc3C)CS[C@H]12)c1csc(N)n1 numericvalue=64.03
compound="CC(=O)NO [ACETOHYDROXAMIC ACID]" numericvalue=91.26
compound=O=C(O)c1ccccc1Nc1cccc(C(F)(F)F)c1 numericvalue=211.3
compound=COc1c(O)cc2c(c1O)[C@@H]1O[C@H](CO)[C@@H](O)[C@H](O)[C@H]1OC2=O numericvalue=14.59
compound="CC(=O)OCC(=O)[C@@]1(O)CC[C@H]2[C@@H]3C[C@H](C)C4=CC(=O)C=C[C@]4(C)[C@H]3[C@@H](O)C[C@@]21C [METHYLPREDNISOLONE ACETATE]" numericvalue=52.04
compound=Cc1c(C(=O)O)c(O)cc2c1C(=O)c1c(O)c([C@@H]3O[C@H](CO)[C@@H](O)[C@H](O)[C@H]3O)c(O)c(O)c1C2=O numericvalue=21.61
compound=C[C@]12CC[C@H](Cl)C[C@@H]1CC[C@@H]1[C@@H]2CC[C@]2(C)C(=O)CC[C@@H]12 numericvalue=67.79
compound="Cl.O=C(O)c1cn(-c2ccc(F)cc2)c2cc(N3CCNCC3)c(F)cc2c1=O [SARAFLOXACIN HYDROCHLORIDE]" numericvalue=109.6
compound="C#CCCCCCCCCCCCC(O)CC(O)COC(C)=O (configuration not stated) [AVOCADYNE ACETATE]" numericvalue=144.6
compound="NCCCC[C@H](NC(=O)[C@H](Cc1ccc(O)cc1)NC(=O)[C@@H](N)CCCCN)C(=O)O [LYSYL-TYROSYL-LYSINE ACETATE] (H-Lys-Tyr-Lys-OH)" numericvalue=85.47
compound=O=C(/C=C/c1ccc(O)c(O)c1)O[C@@H]1C[C@](O)(C(=O)O)C[C@@H](O)[C@H]1O numericvalue=105.9
compound=CNC(C)(C)Cc1ccccc1.O=S(=O)(O)O numericvalue=107.5
compound=OC[C@H]1O[C@@H](n2cnc3c(O)ncnc32)[C@H](O)[C@@H]1O numericvalue=110.7
compound="C=C1C(=O)O[C@H]2C[C@@H]1C(OC(C)=O)C/C(C)=C/CC/C(C)=C/CC[C@@]2(C)O (some centres not stated) [CRASSIN ACETATE]" numericvalue=60.87
compound=O=c1c(O)cccc2c([C@H]3Oc4cc(O)cc(O)c4C[C@H]3O)cc(O)c(O)c12 numericvalue=60
compound=O=C1CCc2cc(OCCCCc3nnnn3C3CCCCC3)ccc2N1 numericvalue=207.2
compound=OC[C@@H]1CCCN2CCCC[C@H]12 numericvalue=114.4
compound=c1ccc2c(Cc3c[nH]c4ccccc34)c[nH]c2c1 numericvalue=101.6
compound=Cc1cc(=O)oc2c(O)c(O)ccc12 numericvalue=61.23
compound="COc1cc2c3cc1Oc1cc(ccc1O)CC1c4c(cc(OC)c(O)c4Oc4ccc(cc4)CC3N(C)CC2)CCN1C (configuration not stated)" numericvalue=53.34
compound="C=CC(N)CCC(=O)O (configuration not stated)" numericvalue=78.69

Reference source: ChEMBL document CHEMBL3039007
